- Test system: Plasmodium berghei
- TEST_METHOD_NOTES: Screen against P. berghei liver stage (PbLuc), transformed with Luciferase, at 10uM
- Format: functional, HepG2
- COND: tested at 10 uM
Screen size: about 69,000 compounds; about 8,600 (12%) showed an effect of 50% or more. What follows is part of a selection rich in strong results, with near analogues and random picks from the rest.
INHIBITION: recorded values
Give the quantity in %, number only.

Sample records with INHIBITION:
CCn1ncc2c1C(COC)CN(Cc1ccco1)C2 (configuration not stated) : 39.2
O=C(CNc1cccc(S(=O)(=O)C(F)F)c1)NCc1ccco1 : 51.7
CCn1ncc2c1CN(CCc1cccc(Cl)c1)CC2COC (configuration not stated) : 59.3
COCC(=O)N1CCC(c2cc3ncccc3c(O)n2)CC1 : -27.4
CCc1noc(CNC2CCCN(Cc3noc(C4CC4)n3)C2)n1 (configuration not stated) : -6.14

Enter measured INHIBITION, system Plasmodium berghei, for the compound shown: Cc1ccc2c(c1)C1(CCNCC1)CC2OCC1CC1 (configuration not stated) -26.5

Give INHIBITION for this entry on Plasmodium berghei: Clc1ccccc1C1(c2ccnc(CC3CC3)n2)CCNCC1 43.5

Provide INHIBITION, system Plasmodium berghei, entry CC(Cn1cncn1)NC(=O)NCC(C)(C)Cc1ccccc1 (configuration not stated) 39.8

Please respond with reported INHIBITION (system Plasmodium berghei) for CCn1ncc2c1CN(C(=O)Cc1ccccn1)CC2COC (configuration not stated) . 18.3

# return INHIBITION for CC(C)N1[C@@H](C(=O)NCC2CC2)C[C@@H]2CN(Cc3ccco3)C[C@@H]21 , test system: Plasmodium berghei -11

Given COCCCN1Cc2cccc(NC(=O)C(C)(C)C)c2C1 , report its INHIBITION on Plasmodium berghei. -21.1

Fetch value of INHIBITION on Plasmodium berghei for c1cnc(N2CCO[C@H]3[C@H](OCCN4CCCC4)CC[C@@H]32)nc1 . 43.8

Write down the reported INHIBITION (system: Plasmodium berghei) of C=C(C)COc1ccccc1C(=O)NCCc1cc(O)nc(C)n1 41.3

Report value only: INHIBITION, Plasmodium berghei, CCOCC1CN(CCOCc2ccccc2)Cc2c1cnn2C (configuration not stated) -14.3

GET INHIBITION where system = Plasmodium berghei and item = Cc1cc(C(=O)NCC(Cc2cccc(F)c2)N2CCCCC2=O)no1 (configuration not stated) 34.9

Report value: INHIBITION, system: Plasmodium berghei, compound: Cc1ncc(CN2CCC3(CC2)CC(=O)N(C)C3)cn1 55.9

Recall the reported INHIBITION of CCC1C(=O)NCCN1c1ccnc(C(C)(C)C)n1 (configuration not stated) when tested on Plasmodium berghei. 26.8

# lookup: Plasmodium berghei INHIBITION, key = O=C(NCc1nccn1CCc1ccccc1)NCC1CCC1 44.5

Retrieve INHIBITION on Plasmodium berghei; query CCOCC1CN(CCOc2ccc(Cl)cc2)Cc2c1cnn2C (configuration not stated) 19.8

Quote INHIBITION with test system Plasmodium berghei for CCN(Cc1ccoc1)C(=O)C1CCN(C(=O)OC(C)(C)C)C1 (configuration not stated) -12.4

Find the measured INHIBITION of O=C(CCC1CCCC1)N1CCC(c2cc3ncccc3c(O)n2)CC1 with Plasmodium berghei as test system. 55.6

Fetch value of INHIBITION on Plasmodium berghei for CC(Cn1cncn1)NC(=O)Nc1ccc(F)cc1OCC1CC1 (configuration not stated) . -21.1

State, for Plasmodium berghei, measured INHIBITION of the compound listed here: Clc1ccccc1C1(c2ccnc(-c3ncccn3)n2)CCNCC1 33.5

----------
- Test system: Plasmodium berghei
- TEST_METHOD_NOTES: Screen against P. berghei liver stage (PbLuc), transformed with Luciferase, at 10uM
- Format: functional, HepG2
- COND: tested at 10 uM
In all, about 69,000 compounds went through this assay and about 8,600 (12%) showed an effect of 50% or more. The list comes from a sample in which strong results are over-represented; it also holds close analogues and randomly drawn compounds.
In plain terms, low INHIBITION, meaning strictly below 30%, gives 1.0, and everything else gives 0.0.

Problem: For the compound Cc1ccc(CN2Cc3cnn(C)c3C(COCC3CC3)C2)o1 (stereo not given) , is INHIBITION under 30%? 0.0

Would you kindly verify if INHIBITION of OCC1CCCCN1CCCNCc1cc(O)c2cc(F)ccc2n1 (stereo not given) is strictly less than 30%? 1.0

----------
Recorded INHIBITION for the following compounds
- Tested on: Plasmodium berghei
- TEST_METHOD_NOTES: Screen against P. berghei liver stage (PbLuc), transformed with Luciferase, at 10uM
- Type: functional, HepG2
- COND: tested at 10 uM
In all, about 69,000 compounds went through this assay and about 8,600 (12%) showed an effect of 50% or more. The entries come from a sample that favours strong results as a whole.
Answer with a number only, understood to be in %.

CC1(C)CC(N(Cc2ccccc2)Cc2c[nH]cn2)CC(C)(C)N1 : 13.2
CC1(C)CC(N(Cc2ccncc2)Cc2cccnc2)CC(C)(C)N1 : 50.1

Give INHIBITION only, for CN1CCC2(CC1)CN(C(=O)c1cnccn1)Cc1ccccc12 , using Plasmodium berghei data. 18.3

State INHIBITION on Plasmodium berghei. Entry: Cc1c(C(C)NC(=O)Nc2ccc(F)cc2F)cnn1C (stereo not drawn) 44.3

Give INHIBITION for O=C(c1ccnc(C2CCNCC2)c1)N1CCCOCC1 tested on Plasmodium berghei. 42.6

// fetch INHIBITION; item: Cn1cc(CN2CCS(=O)(=O)C(C)(C)C2)cn1 ; system: Plasmodium berghei 44.3

Param request: INHIBITION | system Plasmodium berghei | item CN(C)c1cc(C(=O)N2CCCC2c2cnn(C)c2)ccn1 (stereo not drawn) 22.3

Check Plasmodium berghei data and give INHIBITION for N#CC1(C(=O)N2C[C@H](Nc3ncccn3)[C@@H](C3CC3)C2)CCOCC1 . -28.4

With Plasmodium berghei as the test system, provide measured INHIBITION for this compound: CCN(CC)C(=O)CSc1nc2cc(C)nc-2c(O)n1CC 42.4

Tell me INHIBITION of NC(=O)c1sc2ccccc2c1C1CCN(S(=O)(=O)N2CCOCC2)C1 (stereo not drawn) when tested on Plasmodium berghei. -24.4

----------
- Tested on: Plasmodium berghei
- TEST_METHOD_NOTES: Screen against P. berghei liver stage (PbLuc), transformed with Luciferase, at 10uM
- Format: functional, HepG2
- COND: tested at 10 uM
The campaign covered roughly 69,000 compounds. About 8,600 (12%) showed an effect of 50% or more. The sample holds strong results, similar compounds and a random draw of the others, so the mix is not that of the screen.
PARAMETER_MEASURED: INHIBITION
Give the number first and the unit second.

Known results for compounds:
CCOCC1CN(C(=O)Cc2ccccn2)Cc2c1cnn2CC (stereo unspecified) : 42.7%
CS(=O)(=O)N[C@@H]1CCN(Cc2cccnc2)[C@H]1Cc1ccccc1 : 52%
O=C1[C@H]2CN(C3CCOC3)C[C@H]2CN1c1ccccc1 (stereo partly specified) : 10.5%
O=C([C@@H]1CSCN1)N1CCC2(CC1)CNCc1ccccc12 : 27.5%
Cc1noc(C)c1C(=O)N(C)C(C)c1ccncc1 (stereo unspecified) : 17.5%

State its INHIBITION for this compound: CCN(CC)c1ccc(CNC(=O)N2CCC(C#N)CC2)cc1 2.91%

Answer with the recorded INHIBITION of CN(Cc1c(F)cccc1Cl)C(=O)Cn1cnc(C#N)n1 only. 28.7%

Report INHIBITION for Cn1cc(CN2CC[C@@H](NS(C)(=O)=O)[C@@H]2Cc2cccnc2)cn1 54.4%

Please report INHIBITION for the following compound: Cn1cc(CN2CCOCC3(CCN(C4CCOCC4)C3)C2)cn1 (stereo unspecified) 11.6%

----------
- Tested on: Plasmodium berghei
- TEST_METHOD_NOTES: Screen against P. berghei liver stage (PbLuc), transformed with Luciferase, at 10uM
- Type: functional, HepG2
- COND: tested at 10 uM
About 8,600 (12%) of roughly 69,000 compounds showed an effect of 50% or more. Only a selection was taken, and strong results are over-represented in it overall.
Overview of reported INHIBITION across a group of molecules:
Give the value in % but do not write % after it.

CNc1ccc(CC2CCCN(C(=O)c3c(C)noc3C)C2)nn1 (stereo unspecified) : 21.9
C1CN(CC2CCOCC2)Cc2c(COCC3CC3)nnn2C1 : 8.03
CNc1ccc(CC2CCCN(C(=O)c3cnco3)C2)nn1 (stereo unspecified) : 1.11
COC(=O)C(NC(=O)C1CCCC1)c1cc(F)ccc1F (stereo unspecified) : 29.4
CN(C)CCCN(CCC#N)C(=O)Nc1ccc2[nH]ccc2c1 : 35.9

Okay, next one:
Supply reported INHIBITION belonging to this molecule: O=C1CN(C(=O)C2CN(c3cccc(Cl)c3)CCO2)CCN1 (stereo unspecified) 3.46
